Test system: Nilaparvata lugens (brown plant hopper - nymphs)
Assay: Contact test, mortality of Nilaparvata lugens nymphs on Rice plant (NL)
Assay type: in vivo
Details: 72 h, 500 ppm, 3 days, read-out: grading of mortality, NL
Description: The activity of the Product was determined using a variety of insect pests The Product was used in the form of liquid preparations containing from 100 to 500 parts per million (ppm) by weight of the Product. […]
measured_quantity: mortality at 500 ppm

INSERT INTO measurements (compound, measured_quantity, test_result) VALUES
  ('Fc1ccc(COCC(c2ccc(C(F)(F)F)cc2)C(F)(F)F)cc1Oc1ccccc1 (racemic)', 'mortality at 500 ppm', '80 to 100%'),
  ('CCOc1ccc(C(COCc2ccc(F)c(Oc3ccc(Cl)cc3)c2)C(F)(F)F)cc1 (racemic)', 'mortality at 500 ppm', '80 to 100%'),
  ('FC(F)(F)c1ccc(C(COCc2cccc(Oc3ccccc3)c2)C(F)(F)F)cc1 (racemic)', 'mortality at 500 ppm', '80 to 100%'),
  ('Fc1ccc(COCC(c2ccc(OC(F)(F)F)cc2)C(F)(F)F)cc1Oc1ccc(Cl)cc1 (racemic)', 'mortality at 500 ppm', '80 to 100%');

Origin of values: patent US4891450A
